The reported numbers originate from paper PMC5706701.

Target: Human IP6K1 (Homo sapiens, UniProt Q92551)
Construct: GST (N, cleaved yes); made in house; host or cells: C43 E. coli, pGEX-6P-2
Sequence (Q92551 whole entry): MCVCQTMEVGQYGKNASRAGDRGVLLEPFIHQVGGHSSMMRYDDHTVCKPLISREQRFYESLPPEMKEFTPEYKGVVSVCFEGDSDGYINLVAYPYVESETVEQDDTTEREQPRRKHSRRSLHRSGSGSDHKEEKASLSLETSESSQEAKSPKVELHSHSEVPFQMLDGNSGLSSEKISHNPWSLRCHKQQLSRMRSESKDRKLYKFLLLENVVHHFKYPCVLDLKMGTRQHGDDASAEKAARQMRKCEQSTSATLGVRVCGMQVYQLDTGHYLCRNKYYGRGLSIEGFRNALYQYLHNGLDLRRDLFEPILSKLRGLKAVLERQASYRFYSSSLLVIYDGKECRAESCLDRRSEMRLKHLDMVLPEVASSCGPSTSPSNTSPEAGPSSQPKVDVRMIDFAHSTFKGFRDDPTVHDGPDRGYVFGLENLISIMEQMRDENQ
Assay: IP6K1 high-throughput screen of the Sigma LOPAC (ADP-Glo Max, single point);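 note: final compound concentration 10µM in 5% DMSO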
Format: biochemical
Details: LOPAC single-point screen, Z-score against plate average and StDev
parameter_measured: Z-score

CCCN1CCO[C@@H]2c3cc(O)ccc3OC[C@H]21.Cl [S(+)-PD 128,907 hydrochloride] ... 0.07425
CC(/C=C/c1cccc(Oc2ccc(F)cc2)c1)N(O)C(N)=O (stereo not drawn) [BWB70C] ... 0.1421
CC1CN(S(=O)(=O)c2cccc3cnccc23)CCN1.Cl.Cl (stereo not drawn) ... -0.07553
